# Test system: HOP-62 NSCLC
# experiment_notes: NCI tumour cell line growth inhibition, 48 h
Categorize each record by its TGI using lower segment = under 30 µM, middle segment = from 30 µM up to 50 µM, upper segment = 50 µM and over

// known answers, use as guide
molecule	label_value
CCN(Cc1ccc(F)c(F)c1)c1ccc(CO)c(Cl)c1	lower segment
COc1cc(/C=C/C(=O)O)ccc1C(=O)O/C=C/c1ccccc1	upper segment

# classify by TGI band: CC1SC(c2c(Cl)cccc2Cl)N(NC(=O)c2[nH]c3ccc(F)cc3c2-c2ccccc2)C1=O (configuration not stated)
lower segment

Dear colleague, I would appreciate it if you could identify the bin for COc1ccc(CC(CO)NC(=O)OCc2ccccc2)cc1Oc1ccc(CC(CO)NC(=O)OCc2ccccc2)cc1 (configuration not stated) and reply at your convenience.
middle segment

Note: place this molecule into its band. Item: O=C(Nc1cccc2cnccc12)c1cc2c(cc1Cl)Sc1nccn1S2(=O)=O
middle segment

Where would C=C(C)CCC(=O)[C@](C)(O)[C@H]1[C@H](O)C[C@@]2(C)[C@@H]3CCc4c(cc(OC5OC(CO)C(O)C(O)C5O)c(O)c4C)C3(C)C(=O)C[C@]12C (some centres not stated) land among the classes by reported TGI?
upper segment

Note: place this molecule into its band. Item: Nc1c(C(=O)Nc2cccc([N+](=O)[O-])c2)sc2nc3c(cc12)C(O)CCC3 (configuration not stated)
upper segment

Which category does the recorded TGI put CCOC(=O)C1=C(C)N(Cc2ccccc2)C(C)=C(C(=O)OCC)C1c1ccccc1O in?
upper segment

Lab note: sort COc1c(CCC[P+](c2ccccc2)(c2ccccc2)c2ccccc2)cc2c(c1OC)OCO2 into the matching TGI band.
lower segment

Please indicate the class for N#CC(C(=O)/C(=N/NC(=O)c1ccccc1O)C(C#N)c1ccc(Cl)cc1)c1ccc(Cl)cc1 (configuration not stated) based on its TGI.
middle segment

Form field 'band' for Cc1ccc(C(=O)O/N=C2/CCC/C2=C\c2ccccc2)cc1
upper segment

# bin label for CCOC(=O)c1[nH]cc(C)c1-c1ccn(-c2ccccc2)c1
upper segment

Band for the recorded TGI of Cc1cc(N(CCC#N)S(=O)(=O)c2ccccc2)ccc1/C=C1N=C(/C=C/c2ccccc2)OC\1=O ?
upper segment

Could you place COc1ccc(C(=O)/C=C/c2ccc(/C=C/c3cc(OC)c(OC)c(OC)c3)cc2)cc1 in its proper category? Many thanks.
upper segment

Hello team, could you let me know which band the following molecule falls into: C[C@@H](C(=O)Nc1ccc(Cl)cc1)C1CCC(c2ccnc3ccc(F)cc23)CC1 (some centres not stated)
upper segment

Please report the category associated with COc1ccc(Nc2nc3ccc(C(F)(F)F)cc3nc2C(=O)O)cc1OC , nothing else.
upper segment

Please indicate the class for COc1cccc(-c2cc(=O)c3c(C)cc(C)nc3[nH]2)c1 based on its TGI.
upper segment
